- assayTarget: BCR-Abl T315I (Homo sapiens, UniProt P00519, T315I)
- Construct: BCR (N-terminal fusion partner of BCR-ABL); human BCR would be P11274; the other entry of the earlier key: BCR (P11274, Breakpoint cluster region protein)
- protocolDescription: IC50 of compounds against kinase target T315I (Table I)
- conditionParameters: read-out: IC50 T3151
- Description: All compounds are initially dissolved in DMSO to make 10 mM stock solutions, and then are serially diluted to obtain final concentrations for in vitro experiments. Ba/F3.p210 cells are obtained by transfecting the IL-3-dependent marine hematopoietic Ba/F3 cell line with a pGD vector containing p210BCR-ABL (B2A2) cDNA (Daley and Baltimore, 1988; Sattler et al., 1996; Okuda et al., 1996). […]
reportedProperty: IC50 (µM)

I = CCN1CCN(Cc2ccc(NC(=O)c3cccc(Nc4ccc5c(NC(=O)C6CC6)n[nH]c5c4)c3)cc2C(F)(F)F)CC1
II = CCN1CCN(Cc2ccc(NC(=O)c3cccc(-c4ccc5c(NC(=O)C6CC6)n[nH]c5c4)c3)cc2C(F)(F)F)CC1
Exam item: Sort I and II by IC50 descending and give the first. Indicate your choice by writing its label.
Marked response: I
(I: 3.11 µM, II: 0.34 µM)

====

- assayTarget: EML4-Alk (Homo sapiens, UniProt Q9UM73)
- Construct: EML4 (N-terminal fusion partner); human EML4 would be Q9HC35; the other entry of the earlier key: EML4 (Q9HC35, Echinoderm microtubule-associated protein-like 4)
- Sequence (Q9UM73 1058-1620 limits assumed): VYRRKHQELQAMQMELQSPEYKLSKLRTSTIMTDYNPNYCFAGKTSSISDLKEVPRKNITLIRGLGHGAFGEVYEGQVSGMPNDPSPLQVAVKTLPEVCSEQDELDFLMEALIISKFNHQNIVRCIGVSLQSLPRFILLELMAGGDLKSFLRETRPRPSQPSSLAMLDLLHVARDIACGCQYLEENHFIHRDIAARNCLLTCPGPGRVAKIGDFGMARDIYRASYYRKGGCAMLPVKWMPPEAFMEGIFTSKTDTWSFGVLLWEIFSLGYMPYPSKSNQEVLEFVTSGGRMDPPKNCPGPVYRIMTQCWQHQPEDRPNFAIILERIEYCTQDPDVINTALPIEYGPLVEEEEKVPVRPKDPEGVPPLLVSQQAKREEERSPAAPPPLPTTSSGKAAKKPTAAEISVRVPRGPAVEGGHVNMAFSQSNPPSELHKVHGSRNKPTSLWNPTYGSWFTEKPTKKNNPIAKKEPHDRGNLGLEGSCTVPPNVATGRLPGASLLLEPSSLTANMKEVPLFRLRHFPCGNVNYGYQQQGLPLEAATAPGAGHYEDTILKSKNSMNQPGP
- protocolDescription: IC50 of compounds against kinase target EML4-Alk (Table I)
pIC50: −log10 of the molar value.
reportedProperty: pIC50

1. O=C(Nc1cccc(-c2ccc3c(NC(=O)C4CC4)n[nH]c3c2)c1)C1CC1 = 6.30
2. CCN1CCN(Cc2ccc(NC(=O)c3cccc(Nc4ccc5c(NC(=O)C6CC6)n[nH]c5c4)c3)cc2C(F)(F)F)CC1 = 5.60
3. CNC(=O)c1cccc(-c2ccc3c(NC(=O)C4CC4)n[nH]c3c2)c1 = 5.98

I = CCN1CCN(Cc2ccc(C(=O)Nc3cccc(-c4ccc5c(N)n[nH]c5c4)c3)cc2C(F)(F)F)CC1
II = CCN1CCN(Cc2ccc(NC(=O)c3cccc(-c4ccc5c(NC)n[nH]c5c4)c3)cc2C(F)(F)F)CC1
III = Cc1cn(-c2cc(NC(=O)c3cccc(-c4ccc5c(NC(=O)C6CC6)n[nH]c5c4)c3)cc(C(F)(F)F)c2)cn1
Exam item: # desc sort on pIC50 across 3 molecules Give your ranking as a list of the labels in the requested order.
Marked response: I, III, II
(I: 6.40, III: 5.87, II: 5.38)

====

- assayTarget: BCR-Abl T315I (Homo sapiens, UniProt P00519, T315I)
- Construct: BCR (N-terminal fusion partner of BCR-ABL); human BCR would be P11274; the other entry of the earlier key: BCR (P11274, Breakpoint cluster region protein)
- protocolDescription: IC50 of compounds against kinase target T315I (Table I)
- conditionParameters: read-out: IC50 T3151
pIC50: −log10 of the molar value.
reportedProperty: pIC50

1) CCN1CCN(Cc2ccc(NC(=O)c3ccc(C)c(-c4ccc5c(NC(=O)C6CC6)n[nH]c5c4)c3)cc2C(F)(F)F)CC1 = 6.30

A = CCN1CCN(Cc2ccc(NC(=O)c3cccc(-c4ccc5c(NC)n[nH]c5c4)c3)cc2C(F)(F)F)CC1
B = O=C(Nc1cccc(-c2ccc3c(NC(=O)C4CC4)n[nH]c3c2)c1)C1CC1
Exam item: Could you check which of A and B has a smaller value for pIC50? Indicate your choice by writing its label.
Marked response: B
(B: 5.90, A: 6.20)
